- assay-remarks: Half life in beagle dog at 1 mg/kg, iv by LC-MS/MS method
- Type: ADME, organism-based, Canis lupus familiaris
- applied-conditions: in vivo
value-type: half-life (h)
Report as a plain number; the unit h is understood.

input: Consider the molecule shown here: O=C(O)CNC(=O)C1=C(O)CCN(Cc2ccc(Oc3ccc(Cl)cc3)nc2)C1=O What is its recorded half-life?
output: 4.7

---

- assay-remarks: Protein binding in Sprague-Dawley rat plasma at 0.3 ug/ml after 8 hrs by equilibrium dialysis method
- Assay type: ADME, cell-free
- applied-conditions: read-out: PPB (converted)
value-type: fraction unbound at 8 h, 0.3 ug/ml
Reply with the value as a number alone.

input: Consider the compound shown here: O=C([O-])CNC(=O)C1=C(O)CCN(Cc2ccc(Oc3ccc(Cl)cc3)nc2)C1=O.[Na+] What is its recorded fraction unbound at 8 h, 0.3 ug/ml?
output: 0.011

Every entry's value here was drawn from ChEMBL document CHEMBL4118138.
